- protocol_description: Substrate activity at ADH101 (unknown origin) assessed as specific enzyme activity using NADH as cofactor at 2.5 to 10 mM measured for 30 mins in presence of Tris HCL buffer by UV-Vis spectroscopy analysis
- test_context: dose 2.5-10 mM
Activity of 40 nmol/min/mg or higher: Fulfilled. Under 40 nmol/min/mg: Not fulfilled.

Would you please look over these solved cases?
[
  {
    "smiles_notation": "CC(=O)c1cccc(Br)c1",
    "cat": "Not fulfilled"
  },
  {
    "smiles_notation": "CC(=O)C1CCCCC1",
    "cat": "Fulfilled"
  }
]

Q: Say whether CC(=O)c1ccc(Br)c(F)c1 shows Activity of 40 nmol/min/mg or more.
A: Fulfilled

Q: COc1ccccc1C(C)=O , same question.
A: Not fulfilled

Q: O=C(c1ccccc1)c1ccccc1 , same question.
A: Not fulfilled

Q: CC(=O)c1ccccn1 , same question.
A: Not fulfilled

Q: O=c1[nH]c(=O)c2nc[nH]c2[nH]1 , same question.
A: Fulfilled

Q: CC(=O)c1ccc(Br)cc1O , same question.
A: Fulfilled

Q: CC(=O)c1ccccc1 , same question.
A: Fulfilled

Q: CCOc1ccc(C(C)=O)cc1 , same question.
A: Not fulfilled

Q: CC(=O)c1ccc(Cl)nc1 , same question.
A: Not fulfilled

Q: CC(=O)c1ccc(N)cc1 , same question.
A: Not fulfilled

###

- protocol_description: Substrate activity at ADH105 (unknown origin) assessed as specific enzyme activity using NADH as cofactor at 2.5 to 10 mM measured for 30 mins in presence of 20% hexane-Tris HCL buffer by UV-Vis spectroscopy analysis
- test_context: dose 2.5-10 mM
quantity: Activity (nmol/min/mg)
Write it as a number; the unit nmol/min/mg goes unstated.

Look over these answered cases.
[
  {
    "smiles_notation": "CC(=O)c1nccn1C",
    "Activity (nmol/min/mg)": 20.7
  },
  {
    "smiles_notation": "CC(=O)c1cccc(O)c1",
    "Activity (nmol/min/mg)": 157
  },
  {
    "smiles_notation": "CC(=O)c1ccc(Cl)nc1",
    "Activity (nmol/min/mg)": 92
  },
  {
    "smiles_notation": "CC(=O)c1ccc(Br)c(F)c1",
    "Activity (nmol/min/mg)": 242
  },
  {
    "smiles_notation": "CC(=O)c1ccc(N)cc1",
    "Activity (nmol/min/mg)": 80.4
  }
]

Q: Looking for the measured Activity of CCOc1ccc(C(C)=O)cc1 , can you help?
A: 196

Q: CC(=O)c1ccc(C[C@H](N)C(=O)O)cc1 , same question.
A: 62.2

Q: CC(=O)c1ccc(NS(C)(=O)=O)cc1 , same question.
A: 203

Q: CC(=O)c1cncnc1 , same question.
A: 50.5

Q: CC(=O)c1ccc2c(c1)OCO2 , same question.
A: 189

Q: COc1cc(OC)cc(C(C)=O)c1 , same question.
A: 363

Q: CC(=O)CCc1ccccc1 , same question.
A: 364

Q: COc1ccccc1C(C)=O , same question.
A: 83

Q: CC(=O)c1ccccn1 , same question.
A: 60.3

Q: CC(=O)c1ccc([N+](=O)[O-])cc1 , same question.
A: 593

Q: CC(=O)c1ccc(Br)nc1 , same question.
A: 269

Q: COc1cc(C(C)=O)cc(OC)c1OC , same question.
A: 89.9
